B1: glmS ribozyme (parent)
chain: AUAAAAGCGCCAGAACUACAGAAAUGUAGUUGACGAGGAGGAGGUUUAUCGAAUUUUCGGCGGAUGCCUCCAAA

- Variants of: B1
- EXPERIMENTAL_DETAILS: self-cleavage kobs at 160 uM GlcN6P; higher = faster cleavage; RNA array
- SETTINGS: with glucosamine-6-phosphate
This sample holds only a part of the variants without activity.
READOUT_KIND: self-cleavage kobs at 160 uM GlcN6P

Give its self-cleavage kobs at 160 uM GlcN6P value. Item: C10U G59C
< 1e-05 s⁻¹

So what does the record say about self-cleavage kobs at 160 uM GlcN6P for U46G C50A ?
< 1e-05 s⁻¹

Need self-cleavage kobs at 160 uM GlcN6P of A6G U56C , thanks.
< 1e-05 s⁻¹

Given U54C C71A , state its recorded self-cleavage kobs at 160 uM GlcN6P.
0.000296 s⁻¹

Please look up its self-cleavage kobs at 160 uM GlcN6P: G32A G43C
< 1e-05 s⁻¹

Entry under review: A53U U69G . Reported self-cleavage kobs at 160 uM GlcN6P?
6.15e-05 s⁻¹

I am curious: what self-cleavage kobs at 160 uM GlcN6P value has been reported for G37A C68A ?
< 1e-05 s⁻¹

Form field: reported self-cleavage kobs at 160 uM GlcN6P of G32U G41C
< 1e-05 s⁻¹

// self-cleavage kobs at 160 uM GlcN6P lookup, key: U30A U49C
< 1e-05 s⁻¹

Given the variant C11G A48G , what is its reported self-cleavage kobs at 160 uM GlcN6P?
< 1e-05 s⁻¹

Fill blank: measured self-cleavage kobs at 160 uM GlcN6P of the variant A52U G60A G66C is ____.
< 1e-05 s⁻¹

Item U31C A52G has what recorded self-cleavage kobs at 160 uM GlcN6P?
2.13e-05 s⁻¹

# lookup: self-cleavage kobs at 160 uM GlcN6P of A12U A14G
0.00737 s⁻¹

What measured self-cleavage kobs at 160 uM GlcN6P goes with G37C C71G ?
< 1e-05 s⁻¹

# lookup: self-cleavage kobs at 160 uM GlcN6P of A53U C68A
3.62e-05 s⁻¹

What value of self-cleavage kobs at 160 uM GlcN6P has been recorded for this entry: A6G G13U
< 1e-05 s⁻¹

Report self-cleavage kobs at 160 uM GlcN6P for A42U A52C please.
< 1e-05 s⁻¹

Reported self-cleavage kobs at 160 uM GlcN6P, variant G40C C50G : ____
< 1e-05 s⁻¹

Consider the variant shown here: G7C C50A What is its recorded self-cleavage kobs at 160 uM GlcN6P?
< 1e-05 s⁻¹

I'd like to know its self-cleavage kobs at 160 uM GlcN6P. The variant in question is G41U C71A
5.27e-05 s⁻¹

Which self-cleavage kobs at 160 uM GlcN6P reading was recorded for the variant U46A U55A ?
0.00063 s⁻¹

Param item = G43U U47G U65C ; retrieve measured self-cleavage kobs at 160 uM GlcN6P.
< 1e-05 s⁻¹

Returns the measured self-cleavage kobs at 160 uM GlcN6P for the input variant. Input: G44C C58A
< 1e-05 s⁻¹

Bench note: what self-cleavage kobs at 160 uM GlcN6P did G7C G38U show?
< 1e-05 s⁻¹

Reported self-cleavage kobs at 160 uM GlcN6P for U49C G51C : what is it?
< 1e-05 s⁻¹

// lookup self-cleavage kobs at 160 uM GlcN6P for U45G U55A
0.000513 s⁻¹

Can you share its self-cleavage kobs at 160 uM GlcN6P? I mean this variant: A36G G41A G63U
< 1e-05 s⁻¹

Quick one: self-cleavage kobs at 160 uM GlcN6P for A6G A14G C16U G32U G35C G41C C50A C71G ?
< 1e-05 s⁻¹

Which self-cleavage kobs at 160 uM GlcN6P is reported for this variant? C16A G60U
< 1e-05 s⁻¹

Fill in the blank: the reported self-cleavage kobs at 160 uM GlcN6P of G40C G63C is ____.
< 1e-05 s⁻¹

Look up self-cleavage kobs at 160 uM GlcN6P for this variant: G43U U57A
< 1e-05 s⁻¹

State the recorded self-cleavage kobs at 160 uM GlcN6P for this entry: A14C U30G A36U A53G
< 1e-05 s⁻¹

For the variant C10U G43U , what self-cleavage kobs at 160 uM GlcN6P is on record?
< 1e-05 s⁻¹

Entry C10U A36U : reported self-cleavage kobs at 160 uM GlcN6P = ?
< 1e-05 s⁻¹

Entry under review: C34U U49G A52U . Reported self-cleavage kobs at 160 uM GlcN6P?
< 1e-05 s⁻¹

I'd like to know its self-cleavage kobs at 160 uM GlcN6P. The variant in question is G40U C71U
0.000742 s⁻¹

Which self-cleavage kobs at 160 uM GlcN6P value belongs to G32A A42C ?
< 1e-05 s⁻¹

May I ask what self-cleavage kobs at 160 uM GlcN6P has been recorded for A33C U54G ?
8.91e-05 s⁻¹

Tell me the measured self-cleavage kobs at 160 uM GlcN6P of C8A G29C G32C , please.
< 1e-05 s⁻¹

self-cleavage kobs at 160 uM GlcN6P for G41C U54G C67U ?
< 1e-05 s⁻¹

Bench note: what self-cleavage kobs at 160 uM GlcN6P did G7A G60A show?
< 1e-05 s⁻¹

Quick one: self-cleavage kobs at 160 uM GlcN6P for G32U G41A G66C C68G ?
< 1e-05 s⁻¹

// lookup self-cleavage kobs at 160 uM GlcN6P for G13A C16U
4.29e-05 s⁻¹

Query (variant): G60U A64G ; field requested: self-cleavage kobs at 160 uM GlcN6P
< 1e-05 s⁻¹

What value of self-cleavage kobs at 160 uM GlcN6P has been recorded for this entry: A14G G29A A36U U47C C67U
< 1e-05 s⁻¹

Quick one: self-cleavage kobs at 160 uM GlcN6P of A12C G60A ?
< 1e-05 s⁻¹
